Here, each record is paired with measured koff data.
# system-under-test: T1, human folate receptor alpha (hFRα), recombinant protein (human, UniProt P15328 25-233)
# T1 construct: Bought recombinant proteins (His-tagged, or biotinylated via Avi-tag, e.g. AcroBiosystems FO1-H82E2, F01-H52H1); also called hFOLR1; huFOLR1
# T1 sequence (P15328 25-233 limits assumed): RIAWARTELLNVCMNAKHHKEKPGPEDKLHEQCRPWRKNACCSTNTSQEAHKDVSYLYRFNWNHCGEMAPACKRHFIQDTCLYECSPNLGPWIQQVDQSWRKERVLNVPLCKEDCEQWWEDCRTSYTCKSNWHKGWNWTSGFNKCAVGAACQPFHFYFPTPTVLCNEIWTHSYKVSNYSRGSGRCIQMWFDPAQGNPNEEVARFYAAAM
# assay-notes: BLI, periplasmic extract, FRα on AR2G biosensors
Report only the number, with the unit s⁻¹ understood.

{"binder": "VHH 3HFO26 (family 1) (VHH) VHH: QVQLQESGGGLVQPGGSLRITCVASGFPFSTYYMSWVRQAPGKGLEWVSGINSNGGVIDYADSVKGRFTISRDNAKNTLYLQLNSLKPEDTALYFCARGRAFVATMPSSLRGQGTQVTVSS", "koff / s⁻¹": 0.0582}

Next, consider the following binder.
Per the record, VHH 2HFO19 (family 1) (VHH, also called Nb19) VHH: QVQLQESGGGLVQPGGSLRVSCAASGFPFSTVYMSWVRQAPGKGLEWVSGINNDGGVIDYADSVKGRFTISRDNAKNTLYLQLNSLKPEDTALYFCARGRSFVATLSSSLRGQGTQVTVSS has koff of 0.013
